Values were extracted from ChEMBL document CHEMBL1147101.

- System: Pseudomonas aeruginosa
- TEST_DESCRIPTION: Antimicrobial activity against Pseudomonas aeruginosa 65.36-4 tracheal isolates from mechanically ventilated tuberculosis patient
- Type: functional, organism-based
- STUDY_CONDITIONS: Trachea
Activity calls are given as the source filed them. The calls are words filed in the database; no cut-off is given here.
Response enum: active, inactive

For CCN[C@@H]1C[C@H](N)[C@@H](O[C@H]2OC(CN)=CC[C@H]2N)[C@H](O)[C@H]1O[C@H]1OC[C@](C)(O)[C@H](NC)[C@H]1O , which call appears in the assay record?
inactive

For NC[C@H]1O[C@H](O[C@H]2[C@H](O)[C@@H](O[C@H]3O[C@H](CO)[C@@H](O)[C@H](N)[C@H]3O)[C@H](N)C[C@@H]2N)[C@H](N)C[C@@H]1O , which call appears in the assay record?
active

For O=C(O)c1cn(C2CC2)c2cc(N3CCNCC3)c(F)cc2c1=O , which call appears in the assay record?
active

For NCC[C@H](O)C(=O)N[C@@H]1C[C@H](N)[C@@H](O[C@H]2O[C@H](CN)[C@@H](O)[C@H](O)[C@H]2O)[C@H](O)[C@H]1O[C@H]1O[C@H](CO)[C@@H](O)[C@H](N)[C@H]1O , which call appears in the assay record?
inactive

For C[C@@H](O)[C@H]1C(=O)N2C(C(=O)O)=C(SCCNC=N)C[C@H]12 , which call appears in the assay record?
inactive

For CCn1cc(C(=O)O)c(=O)c2cc(F)c(N3CCNCC3)cc21 , which call appears in the assay record?
active

For CCN1CCN(C(=O)N[C@@H](C(=O)N[C@@H]2C(=O)N3[C@@H]2SC(C)(C)[C@@H]3C(=O)O)c2ccccc2)C(=O)C1=O , which call appears in the assay record?
inactive

For CC(C)(O/N=C(\C(=O)N[C@@H]1C(=O)N2C(C(=O)[O-])=C(C[n+]3ccccc3)CS[C@H]12)c1csc(N)n1)C(=O)O , which call appears in the assay record?
inactive

For CO/N=C(\C(=O)N[C@@H]1C(=O)N2C(C(=O)[O-])=C(C[N+]3(C)CCCC3)CS[C@H]12)c1csc(N)n1 , which call appears in the assay record?
inactive

For C[C@@H](O)[C@H]1C(=O)N2C(C(=O)O)=C(S[C@@H]3CN[C@H](C(=O)N(C)C)C3)[C@H](C)[C@H]12 , which call appears in the assay record?
inactive

* * *

- System: Pseudomonas aeruginosa
- TEST_DESCRIPTION: Antimicrobial activity against Pseudomonas aeruginosa 1A9 tracheal isolates from mechanically ventilated tuberculosis patient
- Format: functional, organism-based
- STUDY_CONDITIONS: Trachea
Activity calls are given as the source filed them. The rule behind the calls is not given here.
Response enum: 1.0 (active), 0.0 (inactive)

For NC[C@H]1O[C@H](O[C@H]2[C@H](O)[C@@H](O[C@H]3O[C@H](CO)[C@@H](O)[C@H](N)[C@H]3O)[C@H](N)C[C@@H]2N)[C@H](N)C[C@@H]1O , which call appears in the assay record?
1.0

For CC(C)(O/N=C(\C(=O)N[C@@H]1C(=O)N2C(C(=O)[O-])=C(C[n+]3ccccc3)CS[C@H]12)c1csc(N)n1)C(=O)O , which call appears in the assay record?
0.0

For C[C@@H](O)[C@H]1C(=O)N2C(C(=O)O)=C(SCCNC=N)C[C@H]12 , which call appears in the assay record?
0.0

For CCN[C@@H]1C[C@H](N)[C@@H](O[C@H]2OC(CN)=CC[C@H]2N)[C@H](O)[C@H]1O[C@H]1OC[C@](C)(O)[C@H](NC)[C@H]1O , which call appears in the assay record?
1.0

For C[C@H]1[C@H](NC(=O)/C(=N\OC(C)(C)C(=O)O)c2csc(N)n2)C(=O)N1S(=O)(=O)O , which call appears in the assay record?
0.0

For CCn1cc(C(=O)O)c(=O)c2cc(F)c(N3CCNCC3)cc21 , which call appears in the assay record?
1.0

For CO/N=C(\C(=O)N[C@@H]1C(=O)N2C(C(=O)[O-])=C(C[N+]3(C)CCCC3)CS[C@H]12)c1csc(N)n1 , which call appears in the assay record?
1.0

* * *

- System: Pseudomonas aeruginosa
- TEST_DESCRIPTION: Antimicrobial activity against Pseudomonas aeruginosa 65.38-2 tracheal isolates from mechanically ventilated tuberculosis patient
- Assay type: functional, organism-based
- STUDY_CONDITIONS: Trachea
Calls of active or inactive are those of the source. No cut-off for these calls is given here.
Response enum: active, inactive

For O=C(O)c1cn(C2CC2)c2cc(N3CCNCC3)c(F)cc2c1=O , which call appears in the assay record?
active

For NC[C@H]1O[C@H](O[C@H]2[C@H](O)[C@@H](O[C@H]3O[C@H](CO)[C@@H](O)[C@H](N)[C@H]3O)[C@H](N)C[C@@H]2N)[C@H](N)C[C@@H]1O , which call appears in the assay record?
active

For CCN1CCN(C(=O)N[C@@H](C(=O)N[C@@H]2C(=O)N3[C@@H]2SC(C)(C)[C@@H]3C(=O)O)c2ccccc2)C(=O)C1=O , which call appears in the assay record?
inactive

For C[C@@H](O)[C@H]1C(=O)N2C(C(=O)O)=C(S[C@@H]3CN[C@H](C(=O)N(C)C)C3)[C@H](C)[C@H]12 , which call appears in the assay record?
inactive

* * *

- Test system: Pseudomonas aeruginosa
- TEST_DESCRIPTION: Antimicrobial activity against Pseudomonas aeruginosa 29G8 tracheal isolates from mechanically ventilated chronic respiratory insufficiency patient
- Format: functional, organism-based
- STUDY_CONDITIONS: Trachea
Activity calls are given as the source filed them. The calls are words filed in the database; no cut-off is given here.
REPORTED_PROPERTY: Activity

Recorded Activity, per entry:
- CCn1cc(C(=O)O)c(=O)c2cc(F)c(N3CCNCC3)cc21: Active
- CC(C)(O/N=C(\C(=O)N[C@@H]1C(=O)N2C(C(=O)[O-])=C(C[n+]3ccccc3)CS[C@H]12)c1csc(N)n1)C(=O)O: Active
- O=C(O)c1cn(C2CC2)c2cc(N3CCNCC3)c(F)cc2c1=O: Active
- NCC[C@H](O)C(=O)N[C@@H]1C[C@H](N)[C@@H](O[C@H]2O[C@H](CN)[C@@H](O)[C@H](O)[C@H]2O)[C@H](O)[C@H]1O[C@H]1O[C@H](CO)[C@@H](O)[C@H](N)[C@H]1O: Active

Note: attention shifts to another entry.
Give its Activity value. Item: CO/N=C(\C(=O)N[C@@H]1C(=O)N2C(C(=O)[O-])=C(C[N+]3(C)CCCC3)CS[C@H]12)c1csc(N)n1
Active

* * *

- Test system: Pseudomonas aeruginosa
- TEST_DESCRIPTION: Antimicrobial activity against Pseudomonas aeruginosa 24D5 tracheal isolates from mechanically ventilated chronic respiratory insufficiency patient
- Type: functional, organism-based
- STUDY_CONDITIONS: Trachea
Calls of active or inactive are those of the source. No cut-off for these calls is given here.
Response enum: active, inactive

For NCC[C@H](O)C(=O)N[C@@H]1C[C@H](N)[C@@H](O[C@H]2O[C@H](CN)[C@@H](O)[C@H](O)[C@H]2O)[C@H](O)[C@H]1O[C@H]1O[C@H](CO)[C@@H](O)[C@H](N)[C@H]1O , which call appears in the assay record?
active

For CCn1cc(C(=O)O)c(=O)c2cc(F)c(N3CCNCC3)cc21 , which call appears in the assay record?
inactive

For C[C@@H](O)[C@H]1C(=O)N2C(C(=O)O)=C(SCCNC=N)C[C@H]12 , which call appears in the assay record?
active

For CC(C)(O/N=C(\C(=O)N[C@@H]1C(=O)N2C(C(=O)[O-])=C(C[n+]3ccccc3)CS[C@H]12)c1csc(N)n1)C(=O)O , which call appears in the assay record?
active

* * *

- Tested on: Pseudomonas aeruginosa
- TEST_DESCRIPTION: Antimicrobial activity against Pseudomonas aeruginosa 65.38-4 tracheal isolates from mechanically ventilated tuberculosis patient
- Format: functional, organism-based
- STUDY_CONDITIONS: Trachea
The source made the active and inactive calls. The calls are words filed in the database; no cut-off is given here.
Response enum: True = active, False = inactive

For O=C(O)c1cn(C2CC2)c2cc(N3CCNCC3)c(F)cc2c1=O , which call appears in the assay record?
True

For CCN[C@@H]1C[C@H](N)[C@@H](O[C@H]2OC(CN)=CC[C@H]2N)[C@H](O)[C@H]1O[C@H]1OC[C@](C)(O)[C@H](NC)[C@H]1O , which call appears in the assay record?
False

For CCn1cc(C(=O)O)c(=O)c2cc(F)c(N3CCNCC3)cc21 , which call appears in the assay record?
True

For CCN1CCN(C(=O)N[C@@H](C(=O)N[C@@H]2C(=O)N3[C@@H]2SC(C)(C)[C@@H]3C(=O)O)c2ccccc2)C(=O)C1=O , which call appears in the assay record?
True

For NCC[C@H](O)C(=O)N[C@@H]1C[C@H](N)[C@@H](O[C@H]2O[C@H](CN)[C@@H](O)[C@H](O)[C@H]2O)[C@H](O)[C@H]1O[C@H]1O[C@H](CO)[C@@H](O)[C@H](N)[C@H]1O , which call appears in the assay record?
False

For CO/N=C(\C(=O)N[C@@H]1C(=O)N2C(C(=O)[O-])=C(C[N+]3(C)CCCC3)CS[C@H]12)c1csc(N)n1 , which call appears in the assay record?
True

For C[C@@H](O)[C@H]1C(=O)N2C(C(=O)O)=C(S[C@@H]3CN[C@H](C(=O)N(C)C)C3)[C@H](C)[C@H]12 , which call appears in the assay record?
False

For NC[C@H]1O[C@H](O[C@H]2[C@H](O)[C@@H](O[C@H]3O[C@H](CO)[C@@H](O)[C@H](N)[C@H]3O)[C@H](N)C[C@@H]2N)[C@H](N)C[C@@H]1O , which call appears in the assay record?
True
